# target: UniProt Q72874
pIC50: −log10 of the molar value.
measured-metric: pIC50

1. CC(C)(C)NC(=O)[C@@H]1C[C@@H]2SCC[C@@H]2CN1C[C@@H](O)[C@H](CSc1ccccc1)NC(=O)[C@@H](CS(=O)(=O)c1ccc2ccccc2c1)NC(=O)C(F)(F)F    8.74
2. CC(C)(C)NC(=O)[C@@H]1C[C@@H]2CCCC[C@@H]2CN1C[C@@H](O)[C@H](Cc1ccccc1)NC(=O)[C@@H](CS(=O)(=O)c1ccc(F)cc1)NS(C)(=O)=O    8.70
3. CC(C)(C)NC(=O)[C@@H]1C[C@@H]2CCCC[C@@H]2CN1C[C@@H](O)[C@H](Cc1ccccc1)NC(=O)[C@@H](C[S+]([O-])c1ccc2ccccc2c1)NS(C)(=O)=O (stereo partly specified)    9.40
4. CC(C)(C)NC(=O)[C@@H]1C[C@@H]2SCC[C@@H]2CN1C[C@@H](O)[C@H](Cc1ccccc1)NC(=O)[C@@H](CS(=O)(=O)c1cccc2cccnc12)NS(C)(=O)=O    9.15
5. CC(=O)N[C@H](CS(=O)(=O)c1ccc2ccccc2c1)C(=O)N[C@@H](Cc1ccccc1)[C@H](O)CN1C[C@H]2CCS[C@H]2C[C@H]1C(=O)NC(C)(C)C    9.30

(a) CC(C)(C)NC(=O)[C@@H]1C[C@@H]2SCC[C@@H]2CN1C[C@@H](O)[C@H](CSc1ccccc1)NC(=O)[C@@H](CS(=O)(=O)c1ccc(F)cc1)NC(=O)C(F)(F)F
(b) CC(C)(C)NC(=O)[C@@H]1C[C@@H]2CCCC[C@@H]2CN1C[C@@H](O)[C@H](Cc1ccccc1)NC(=O)[C@@H](CSc1ccc(F)cc1)NS(C)(=O)=O
(c) CC(=O)N[C@H](CS(=O)(=O)c1ccc(F)cc1)C(=O)N[C@@H](CSc1ccccc1)[C@H](O)CN1C[C@H]2CCS[C@H]2C[C@H]1C(=O)NC(C)(C)C
(d) CC(=O)N[C@H](CS(=O)(=O)c1cccc2cccnc12)C(=O)N[C@@H](Cc1ccccc1)[C@H](O)CN1C[C@H]2CCS[C@H]2C[C@H]1C(=O)NC(C)(C)C
Enquiry: Sort by pIC50, descending. Response format: the labels, sorted as the prompt asks.
Return: d, c, a, b

(A) CC(C)CN(C[C@@H](O)[C@H](Cc1ccccc1)NC(=O)[C@@H](CS(=O)(=O)c1ccc(F)cc1)NS(C)(=O)=O)C(=O)NC(C)(C)C
(B) CC(=O)N[C@H](CS(=O)(=O)c1cccc2cccnc12)C(=O)N[C@@H](Cc1ccccc1)[C@H](O)CN1C[C@H]2CCCC[C@H]2C[C@H]1C(=O)NC(C)(C)C
Enquiry: Which of these two has the smaller recorded pIC50: A or B ? Answer = label.
Return: A
(A: 8.00, B: 8.77)

---

# target: Human immunodeficiency virus type 1 protease (Human immunodeficiency virus 1, UniProt Q72874)
measured-metric: IC50 (nM)

(P) CC(C)(C)NC(=O)[C@@H]1C[C@@H]2SCC[C@@H]2CN1C[C@@H](O)[C@H](Cc1ccccc1)NC(=O)[C@@H](CS(=O)(=O)c1ccc(F)cc1)NS(C)(=O)=O
(Q) CC(C)(C)NC(=O)[C@@H]1C[C@@H]2CCCC[C@@H]2CN1C[C@@H](O)[C@H](Cc1ccccc1)NC(=O)[C@@H](C[S+]([O-])c1ccc(F)cc1)NS(C)(=O)=O (stereo partly drawn)
Enquiry: Compare reported IC50 values for P and Q . Which is lower? Indicate which entry you chose by stating its label.
Return: P
